Data origin: the antibiotic and cytotoxicity screens of Wong et al. (2023)

Test system: HepG2
Experiment: cytotoxicity call (relative viability < 0.9)
Conditions: 10 µM
In all, about 39,000 compounds went through this assay and about 3,300 (8.5%) were called active. The full list was thinned out, with actives kept by preference.
The reply should be one of these categories: active, inactive

Example cases with answers are listed next.
Input smiles | Category label
CCS(=O)(=O)N1CC[C@]2(CC1)CN([C@@H](CO)c1c2c2ccc(cc2n1C)OC)C(=O)Nc1c(noc1C)C | inactive
Cc1noc(C)c1NC(=O)Nc1ccc2c(c1)C(=O)N([C@H](C)CO)C[C@@H](C)[C@@H](CN(C)C(=O)C1CCCCC1)OCCCC[C@H](C)O2 | inactive
Cn1c(=O)c2c(nc(SCSc3nc4c(c(=O)n(C)c(=O)n4C)n3C)n2C)n(C)c1=O | inactive
Cn1c(=O)c2c(nc(S(C)(=O)=O)n2C)n(C)c1=O | active
C[C@H](CO)N1C[C@H](C)[C@H](CN(C)C(=O)Nc2ccccc2)OCCCC[C@H](C)Oc2ccc(NC(=O)Nc3ccc4c(c3)OCO4)cc2C1=O | inactive
COCCc1nc2c(c(=O)n(C)c(=O)n2C)n1C | inactive
C[C@H](CO)N1C[C@H](C)[C@H](CN(C)C(=O)Nc2ccc3c(c2)OCO3)OCCCC[C@H](C)Oc2ccc(NC(=O)Nc3cccc4ccccc34)cc2C1=O | inactive
COc1ccc(cc1)S(=O)(=O)N1C[C@]2(C1)CN([C@@H](CO)c1c2c2ccc(cc2n1C)OC)C(=O)c1cccnc1 | inactive
CSCC[C@H](NC(=O)[C@H](Cc1c[nH]c2ccccc12)NC(=O)CNC(=O)[C@@H](NC(=O)[C@H](Cc1ccc(OS(=O)(=O)O)cc1)NC(=O)[C@H](CC(=O)O)NC(=O)[C@H](CCC(N)=O)NC(=O)[C@@H]1CCC(=O)N1)[C@@H](C)O)C(=O)N[C@@H](CC(=O)O)C(=O)N[C@@H](Cc1ccccc1)C(N)=O | inactive
COc1ccc(S(=O)(=O)N(C)C[C@@H]2Oc3c(NS(=O)(=O)c4ccc(F)cc4)cccc3C(=O)N([C@H](C)CO)C[C@H]2C)cc1 | inactive

Query: recorded result category for CSCC[C@H](NC(=O)[C@H](Cc1ccc(OS(=O)(=O)O)cc1)NC(=O)[C@@H](N)CC(=O)O)C(=O)NCC(=O)N[C@@H](Cc1c[nH]c2ccccc12)C(=O)N[C@@H](CCSC)C(=O)N[C@@H](CC(=O)O)C(=O)N[C@@H](Cc1ccccc1)C(N)=O in this test
active

Follow-up item: O=C(NC1CCCCCCC1)c1ccccc1-c1ccccc1
inactive

What about this molecule? O=C(NC1CCN(CCCCC2(C(=O)NCC(F)(F)F)c3ccccc3-c3ccccc32)CC1)c1ccccc1-c1ccc(C(F)(F)F)cc1
active

###

System: HepG2
Assay: cytotoxicity call (relative viability < 0.9)
Details: 10 µM
In all, about 39,000 compounds went through this assay and about 3,300 (8.5%) were called active. Many of the other results were omitted from the sample, so actives are more common in it than they were.
Assign a class; possible classes are t (active), f (inactive)

Worked examples, 4 compounds total:
Input smiles | Category label
C[C@H]1CN([C@@H](C)CO)C(=O)Cc2cc(NC(=O)Nc3ccc(C(F)(F)F)cc3)ccc2O[C@H]1CN(C)Cc1ccc(C(=O)O)cc1 | f
CC(C)NC(=O)N(C)C[C@@H]1Oc2ccc(NC(=O)CCC(F)(F)F)cc2CC(=O)N([C@@H](C)CO)C[C@H]1C | f
C[C@@H]1CN([C@H](C)CO)C(=O)Cc2cc(NC(=O)NC3CCCCC3)ccc2O[C@@H]1CN(C)Cc1ccc(C(F)(F)F)cc1 | f
C[C@H]1CN([C@@H](C)CO)C(=O)Cc2cc(NC(=O)NC3CCCCC3)ccc2O[C@H]1CN(C)Cc1ccc(C(F)(F)F)cc1 | t

Kindly provide the recorded test outcome for the following compound: CC(C)NC(=O)N(C)C[C@H]1Oc2ccc(NC(=O)CCC(F)(F)F)cc2CC(=O)N([C@@H](C)CO)C[C@@H]1C
t

Thanks! And C[C@H](CO)N1C[C@H](C)[C@@H](CN(C)Cc2ccc(Oc3ccccc3)cc2)Oc2cc(Br)ccc2S1(=O)=O ?
f

Request: CC(C)NC(=O)N(C)C[C@H]1Oc2ccc(NC(=O)CCC(F)(F)F)cc2CC(=O)N([C@H](C)CO)C[C@H]1C
f
